- target_under_test: human glucocorticoid receptor-α [GRX] isoform (Homo sapiens, UniProt P04150)
- Construct: host or cells: insect SF21 cells (baculovirus)
- Sequence (P04150 whole entry, canonical isoform): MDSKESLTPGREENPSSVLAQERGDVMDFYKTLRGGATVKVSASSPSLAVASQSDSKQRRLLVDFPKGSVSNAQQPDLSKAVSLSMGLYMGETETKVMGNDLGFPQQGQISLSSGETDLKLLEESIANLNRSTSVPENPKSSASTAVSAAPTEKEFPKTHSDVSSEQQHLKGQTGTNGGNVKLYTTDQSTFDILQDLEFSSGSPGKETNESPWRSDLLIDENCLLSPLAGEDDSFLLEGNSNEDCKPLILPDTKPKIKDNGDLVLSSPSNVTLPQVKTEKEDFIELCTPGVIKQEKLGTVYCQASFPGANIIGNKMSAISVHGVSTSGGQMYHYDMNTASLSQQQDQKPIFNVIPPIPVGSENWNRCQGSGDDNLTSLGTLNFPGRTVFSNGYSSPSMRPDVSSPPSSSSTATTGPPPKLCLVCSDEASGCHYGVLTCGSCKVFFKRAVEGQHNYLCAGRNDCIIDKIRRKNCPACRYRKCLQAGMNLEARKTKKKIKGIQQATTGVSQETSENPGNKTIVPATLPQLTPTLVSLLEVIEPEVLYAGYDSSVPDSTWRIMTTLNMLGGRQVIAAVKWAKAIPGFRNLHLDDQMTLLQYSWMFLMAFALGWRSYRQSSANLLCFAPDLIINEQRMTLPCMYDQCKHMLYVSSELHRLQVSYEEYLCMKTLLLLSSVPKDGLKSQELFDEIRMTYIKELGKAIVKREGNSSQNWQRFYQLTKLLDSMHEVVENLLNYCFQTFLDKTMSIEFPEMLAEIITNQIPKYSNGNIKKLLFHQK
- protocol: Radioligand binding with human glucocorticoid receptor cytosol ([3H]-dexamethasone competition)
- assay_conditions: GRX cytosol expressed in insect SF21 cells, [3H]-Dex ~0.9 nM, 4° C. overnight; Ki by Cheng-Prusoff, KL ~[…]; read-out: Ki (nM) GR
metric_name: Ki (nM)
Write it as a number; the unit nM goes unstated.

Inquiry: Kindly indicate its recorded Ki. Item: C=C1CC(C)(C)Nc2ccc3c(c21)C(c1ccccc1)Oc1cccc(OC(F)(F)Br)c1-3 (stereo not shown)
Reply text: 128

Inquiry: Write down Ki measured for item COc1c(O)ccc2c1-c1ccc3c(c1[C@H](C1(C)CC=CCC1)O2)C(C)=CC(C)(C)N3 (single isomer, unassigned; (-))
Reply text: 1.2

Inquiry: Provide one value: measured Ki of COc1cccc2c1-c1ccc3c(c1C([C@H]1C=C(CN4CCOCC4)CCC1)O2)C(C)=CC(C)(C)N3 (stereo in doubt)
Reply text: 21

Inquiry: Check the records and state Ki for CCC1Oc2cccc(OC)c2-c2ccc3c(c21)C(C)=CC(C)(C)N3 (stereo not shown)
Reply text: 14

Inquiry: Give the value of Ki reported for the following: C=CCC1Oc2ccc(OC(=O)CCNC(C)=O)c(OC)c2-c2ccc3c(c21)C(C)=CC(C)(C)N3 (racemic)
Reply text: 0.91

Inquiry: Name the recorded Ki of the compound listed here: CCCCCCOc1cccc(C2Oc3cccc(OC)c3-c3ccc4c(c32)C(C)=CC(C)(C)N4)c1 (stereo not shown)
Reply text: 7.6

Inquiry: Provide measured Ki value, entry: C=CCCC1Oc2cccc(OC)c2-c2ccc3c(c21)C(C)=CC(C)(C)N3 (stereo not shown)
Reply text: 8

###

Would you mind telling me the reported log10 of Ki of each entry?
- target_under_test: human progesterone receptor-A [PRA] isoform (Homo sapiens, UniProt P06401)
- Construct: host or cells: insect SF21 cells (baculovirus)
- Sequence (P06401 1-769 isoform P06401-2): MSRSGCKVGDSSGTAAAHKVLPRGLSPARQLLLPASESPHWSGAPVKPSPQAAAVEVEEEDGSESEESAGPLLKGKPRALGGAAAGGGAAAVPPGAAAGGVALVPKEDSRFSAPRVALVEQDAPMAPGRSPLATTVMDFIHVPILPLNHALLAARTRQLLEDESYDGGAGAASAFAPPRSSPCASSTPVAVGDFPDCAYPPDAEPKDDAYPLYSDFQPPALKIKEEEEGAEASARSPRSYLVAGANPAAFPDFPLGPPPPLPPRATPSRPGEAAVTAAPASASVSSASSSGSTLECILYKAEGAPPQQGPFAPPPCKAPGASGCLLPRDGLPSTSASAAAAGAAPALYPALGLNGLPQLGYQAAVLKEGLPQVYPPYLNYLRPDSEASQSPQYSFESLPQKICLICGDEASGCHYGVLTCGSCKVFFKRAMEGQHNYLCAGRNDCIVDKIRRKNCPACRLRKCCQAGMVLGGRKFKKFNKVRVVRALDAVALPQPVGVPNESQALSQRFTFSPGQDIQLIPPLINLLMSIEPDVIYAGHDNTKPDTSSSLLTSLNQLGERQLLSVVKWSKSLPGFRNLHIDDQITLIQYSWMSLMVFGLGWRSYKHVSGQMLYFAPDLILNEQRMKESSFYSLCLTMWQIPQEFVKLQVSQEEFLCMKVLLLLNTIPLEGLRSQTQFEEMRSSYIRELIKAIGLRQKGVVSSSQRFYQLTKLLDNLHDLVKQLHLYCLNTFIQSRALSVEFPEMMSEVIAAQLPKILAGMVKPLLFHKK
- protocol: Radioligand binding with human progesterone receptor cytosol ([3H]-progesterone competition)
- assay_conditions: PRA cytosol expressed in insect SF21 cells, [3H]Prog ~0.8 nM, 4° C. overnight; Ki by Cheng-Prusoff, KL ~4.5 nM; read-out: Ki (nM) PR
log10 Ki, nM

Inquiry: For COc1c(O)ccc2c1-c1ccc3c(c1[C@H]([C@H]1C=CCCC1)O2)C(C)=CC(C)(C)N3 [Example 273] , write its log10 of Ki.
Reply text: 1.55

Inquiry: Name the recorded log10 of Ki of the molecule listed here: COc1c(O)ccc2c1-c1ccc3c(c1C(CC=C(C)C)O2)C(C)=CC(C)(C)N3 (stereo not drawn) [Example 283]
Reply text: 1.78

Inquiry: // fetch log10 of Ki given entry COc1cccc2c1-c1ccc3c(c1C(C1C=CCCC1)O2)C(C)=CC(C)(C)N3 (mixture of isomers) [Example 137]
Reply text: 3.38

Inquiry: Please report log10 of Ki for the following molecule: COc1cccc2c1-c1ccc3c(c1C(CC1CO1)O2)C(C)=CC(C)(C)N3 (stereo not drawn) [Example 175]
Reply text: 3.89

Inquiry: Using the record for C=CCC1Oc2ccc(OC(=O)CCC(=O)N(C)C)c(OC)c2-c2ccc3c(c21)C(C)=CC(C)(C)N3 (stereo not drawn) [Example 296] , state its measured log10 of Ki.
Reply text: 2.68

Inquiry: Supply measured log10 of Ki of C=CCC1Oc2ccc(Cl)c(OC(F)F)c2-c2ccc3c(c21)C(C)=CC(C)(C)N3 (stereo not drawn) [Example 230] in your reply.
Reply text: 1.70

Inquiry: // Input: C=CCC1Oc2ccc(CO)c(Cl)c2-c2ccc3c(c21)C(C)=CC(C)(C)N3 (stereo not drawn) [Example 410] . Output its log10 of Ki only.
Reply text: 1.41

Inquiry: # return recorded log10 of Ki for entry COc1c(O)ccc2c1-c1ccc3c(c1C(Cc1ccc(F)cc1)O2)C(C)=CC(C)(C)N3 (stereo not drawn) [Example 445]
Reply text: 3.54

Inquiry: Find the measured log10 of Ki of C=CCC1Oc2c(Br)cc(Br)c(OC)c2-c2ccc3c(c21)C(C)=CC(C)(C)N3 (stereo not drawn) [Example 301] and report it.
Reply text: 2.05

Inquiry: Provide one value: measured log10 of Ki of COc1c(O)ccc2c1-c1ccc3c(c1/C(=C/c1ccccc1)O2)C(C)=CC(C)(C)N3 [Example 365]
Reply text: 1.99

Inquiry: Identify log10 of Ki associated with the molecule C=CCC1Oc2c(C)cc(C)c(OC)c2-c2ccc3c(c21)C(C)=CC(C)(C)N3 (stereo not drawn) [Example 308]
Reply text: 2.98

Inquiry: Supply recorded log10 of Ki for COc1c(O)ccc2c1-c1ccc3c(c1[C@@H]([C@H]1C=CCCC1)O2)C(C)=CC(C)(C)N3 [Example 285] here.
Reply text: 3.58

Inquiry: For the molecule CC1=CC(C)(C)Nc2ccc3c(c21)/C(=C/c1ccccn1)Oc1ccc(O)c(Cl)c1-3 [Example 368] , report log10 of Ki.
Reply text: 1.79

Inquiry: Using the record for C=C(CCl)CC1Oc2cccc(OC)c2-c2ccc3c(c21)C(C)=CC(C)(C)N3 (stereo not drawn) [Example 48] , state its measured log10 of Ki.
Reply text: 3.44

Inquiry: Give a short answer stating reported log10 of Ki for C=CCC1Oc2ccc(OCCCC(=O)OCC)c(OC)c2-c2ccc3c(c21)C(C)=CC(C)(C)N3 (racemic) [Example 433] .
Reply text: 3.15

Inquiry: Report measured log10 of Ki; entry is COc1c(O)ccc2c1-c1ccc3c(c1C(=Cc1cccc(F)c1)O2)C(C)=CC(C)(C)N3 [Example 412]
Reply text: 2.35

Inquiry: Identify log10 of Ki associated with the molecule COc1cccc2c1-c1ccc3c(c1C(=Cc1cc(Cl)cc(Cl)c1)O2)C(C)=CC(C)(C)N3 [Example 120]
Reply text: 3.80

Inquiry: Give me measured log10 of Ki, please, for this molecule: CC1=C[C@H]([C@H]2Oc3ccc(O)c(Cl)c3-c3ccc4c(c32)C(C)=CC(C)(C)N4)CCC1 [Example 420]
Reply text: 3.38

Inquiry: Determine its reported log10 of Ki: C=CCC1Oc2ccc(CO)c(OC)c2-c2ccc3c(c21)C(C)=CC(C)(C)N3 (stereo not drawn) [Example 386]
Reply text: 2.02

Inquiry: Tell me log10 of Ki reported for CC/C=C\CC1Oc2ccc(O)c(OC)c2-c2ccc3c(c21)C(C)=CC(C)(C)N3 (stereo not drawn) [Example 394]
Reply text: 2.04

Inquiry: Provide only the value of recorded log10 of Ki for COc1c(O)ccc2c1-c1ccc3c(c1C(c1ccc(Cl)c(C(F)(F)F)c1)O2)C(C)=CC(C)(C)N3 (stereo not drawn) [Example 258]
Reply text: 2.94
